Provide the recorded viability, T/C for the entries that follow.
# System: 186277-243-T-J2-PDC complex spheroid growth
# assay_text: Anticancer human tumor 186277-243-T-J2-PDC patient-derived colon adenocarcinoma cell line growth inhibition [AhR]
# experimental_conditions: second compound 10 µM; first compound 0.001 µM; active compounds read low
# Description: Multicellular complex tumor spheroid response to aryl hydrocarbon receptor antagonists in combination with a variety of drugs and investigational agents in selected tumor cell lines […] Compounds. […] If the clinical Cmax for an agent had not been determined, the highest concentration tested was 10 microM (Table 1). […]
Express it in %; write the number only.

Fill in: viability, T/C of Cn1ncnc1C1c2n[nH]c(=O)c3cc(F)cc(c23)NC1c1ccc(F)cc1 (stereo unspecified) + Cc1ccccc1N=Nc1ccc(NC(=O)c2ccnn2C)c(C)c1 is ___ 96.7

Fill in: viability, T/C of CC[C@@]1(O)C(=O)OCc2c1cc1n(c2=O)Cc2cc3c(CN(C)C)c(O)ccc3nc2-1 + Cc1ccccc1N=Nc1ccc(NC(=O)c2ccnn2C)c(C)c1 is ___ 92.2

Fill in: viability, T/C of CC[C@@]1(O)C(=O)OCc2c1cc1n(c2=O)Cc2cc3c(CN(C)C)c(O)ccc3nc2-1 + CC(CO)NC(=O)c1cc(-c2ccc(Cl)cc2)nn(-c2cnn(C)c2)c1=O is ___ 75.4

Fill in: viability, T/C of Cn1ncnc1C1c2n[nH]c(=O)c3cc(F)cc(c23)NC1c1ccc(F)cc1 (stereo unspecified) + Cc1cncc(-c2nc(NCCc3c[nH]c4ccccc34)c3ncn(C(C)C)c3n2)c1 is ___ 90.7

Fill in: viability, T/C of Cn1ncnc1C1c2n[nH]c(=O)c3cc(F)cc(c23)NC1c1ccc(F)cc1 (stereo unspecified) + CC(CO)NC(=O)c1cc(-c2ccc(Cl)cc2)nn(-c2cnn(C)c2)c1=O is ___ 98.1

Fill in: viability, T/C of CC[C@@]1(O)C(=O)OCc2c1cc1n(c2=O)Cc2cc3c(CN(C)C)c(O)ccc3nc2-1 + Cc1cncc(-c2nc(NCCc3c[nH]c4ccccc34)c3ncn(C(C)C)c3n2)c1 is ___ 57.9

---

# System: 186277-243-T-J2-PDC complex spheroid growth
# assay_text: Anticancer human tumor 186277-243-T-J2-PDC cell line growth inhibition [AhR];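 further: luminescent signal used as a stand-in for viable cell amount; spheroids exposed to compounds for seven days before the viability read; 100% = DMSO vehicle control wells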
# experimental_conditions: second compound 1 µM; first compound 0.01 µM; active compounds read low
property_label: viability, T/C (%)
Express it in %; write the number only.

Fill in: viability, T/C of Nc1ncn(C2CC(O)C(CO)O2)c(=O)n1 (configuration not stated) + Cc1ccccc1N=Nc1ccc(NC(=O)c2ccnn2C)c(C)c1 is ___ 102

Fill in: viability, T/C of Nc1ncn(C2CC(O)C(CO)O2)c(=O)n1 (configuration not stated) + CC(CO)NC(=O)c1cc(-c2ccc(Cl)cc2)nn(-c2cnn(C)c2)c1=O is ___ 97.6

Fill in: viability, T/C of Cn1ncnc1C1c2n[nH]c(=O)c3cc(F)cc(c23)NC1c1ccc(F)cc1 (configuration not stated) + Cc1cncc(-c2nc(NCCc3c[nH]c4ccccc34)c3ncn(C(C)C)c3n2)c1 is ___ 107

Fill in: viability, T/C of CC[C@@]1(O)C(=O)OCc2c1cc1n(c2=O)Cc2cc3c(CN(C)C)c(O)ccc3nc2-1 + CC(CO)NC(=O)c1cc(-c2ccc(Cl)cc2)nn(-c2cnn(C)c2)c1=O is ___ 62.2

Fill in: viability, T/C of CC1COCCN1c1cc(-c2ccnn2C)c2ccnc(-c3ccn[nH]3)c2n1 (configuration not stated) + Cc1ccccc1N=Nc1ccc(NC(=O)c2ccnn2C)c(C)c1 is ___ 106

Fill in: viability, T/C of CC[C@@]1(O)C(=O)OCc2c1cc1n(c2=O)Cc2cc3c(CN(C)C)c(O)ccc3nc2-1 + Cc1cncc(-c2nc(NCCc3c[nH]c4ccccc34)c3ncn(C(C)C)c3n2)c1 is ___ 140

Fill in: viability, T/C of Cn1ncnc1C1c2n[nH]c(=O)c3cc(F)cc(c23)NC1c1ccc(F)cc1 (configuration not stated) + Cc1ccccc1N=Nc1ccc(NC(=O)c2ccnn2C)c(C)c1 is ___ 116

Fill in: viability, T/C of Cn1ncnc1C1c2n[nH]c(=O)c3cc(F)cc(c23)NC1c1ccc(F)cc1 (configuration not stated) + CC(CO)NC(=O)c1cc(-c2ccc(Cl)cc2)nn(-c2cnn(C)c2)c1=O is ___ 94.6

Fill in: viability, T/C of CC1COCCN1c1cc(-c2ccnn2C)c2ccnc(-c3ccn[nH]3)c2n1 (configuration not stated) + CC(CO)NC(=O)c1cc(-c2ccc(Cl)cc2)nn(-c2cnn(C)c2)c1=O is ___ 77

Fill in: viability, T/C of Nc1ncn(C2CC(O)C(CO)O2)c(=O)n1 (configuration not stated) + Cc1cncc(-c2nc(NCCc3c[nH]c4ccccc34)c3ncn(C(C)C)c3n2)c1 is ___ 104

Fill in: viability, T/C of CC[C@@]1(O)C(=O)OCc2c1cc1n(c2=O)Cc2cc3c(CN(C)C)c(O)ccc3nc2-1 + Cc1ccccc1N=Nc1ccc(NC(=O)c2ccnn2C)c(C)c1 is ___ 123

Fill in: viability, T/C of CC1COCCN1c1cc(-c2ccnn2C)c2ccnc(-c3ccn[nH]3)c2n1 (configuration not stated) + Cc1cncc(-c2nc(NCCc3c[nH]c4ccccc34)c3ncn(C(C)C)c3n2)c1 is ___ 90
